Where do these numbers come from? They come from patent US5756291.

Exercise: state measured pKi for each of the binders provided.
- target-of-assay: thrombin (alpha, Factor IIa) (Homo sapiens, UniProt P00734;P00734 P00734:328-363,P00734:364-622)
- test-protocol: inhibition
pKi here is simply -log10 of the concentration when that concentration is written in mol/L.

Exam item: Please report the recorded pKi for GGUTGGTGTGGUTGG (ssDNA, dU at 3 and 12) [15-mer dU3 dU12] .
Marked response: 7.10

Exam item: Please report the recorded pKi for GGTTGGTGTGGTUGG (ssDNA, U13 is 5-(1-pentynyl)-2'-deoxyuridine) [15-mer pentynyl-U13] .
Marked response: 7.70

Exam item: Please report the recorded pKi for GGTTGGUGUGGTTGG (ssDNA, dU at 7 and 9) [15-mer dU7 dU9] .
Marked response: 7.82
